Measured values drawn from paper PMC4182091 for this set.

Target: HLA-B*2701 (Homo sapiens, UniProt P01889, D138H/D201E/D98Y/E176V/E204Q/G107R/H137Y/K202T/L105A/N104T/N87E/Q56L/Q94K/R106L/R155S/R180L/S101N/S121N/S48T/Y140D/Y33H/Y91C)
Construct: expressed in transfected cells; host or cells: RMA-S (TAP-deficient murine cell line)
Assay: HLA/peptide complex stability assay, RMA-S cells transfected with HLA-B*2701
Format: cell-based
Details: Table 2; peptide concentration at 50% of maximum fluorescence, range 0.01–200 µM; transfected RMA-S cells, flow cytometry; mean ± S.D. of three to five independent experiments; - = no statistical difference in fluorescence index to negative control; SD; read-out: EC50, B*2701
Ends that are not written are not given here.
So I've got a bunch of sequences here, and I need their pEC50 values.
One number for each entry, as −log10 of the molar value.

Ask: # get_value(readout='pEC50', item= RRYPDAVYL [MV F 438-466, reference compound] )
Reply: 5.30

***
Ask: If you can, please state the reported pEC50 value of KRAVGIGAL [HIV gp160 500-508, reference compound] .
Reply: 4.77

* * *

Biological target: HLA-B*2703 (Homo sapiens, UniProt P01889, D138H/D201E/E176V/E204Q/G107R/H137Y/K202T/N104T/N87E/Q56L/Q94K/R106L/R155S/R180L/S101D/S121N/S48T/Y140D/Y33H/Y83H/Y91C)
Construct: expressed in transfected cells; host or cells: RMA-S (TAP-deficient murine cell line)
Assay: HLA/peptide complex stability assay, RMA-S cells transfected with HLA-B*2703
Assay type: cell-based
Conditions: EC50, B*2703; SD
Ends that are not written are not given here.
I'd be grateful if you could share measured EC50 for these entries.
Numbers only, in µM.

Solved cases (5 shown):
Ask: Param item = SRSALLAQM [M 76-84] ; retrieve measured EC50.
Reply: 6

Ask: Item RRAAAAAAAI [RRA7I] has what recorded EC50?
Reply: 7

Ask: Give the measured EC50 of GRNEVFSNK [L 2089-2097] .
Reply: 71

Ask: # query: EC50 of entry HRFIYLINH [NS2 37-45]
Reply: 10

Ask: Request the reported EC50 associated with KRLPADVLKK [M2 150-159]
Reply: 78

For every listed record, write down its EC50.
1. KRYKGLLPKDI [NP 195-205]
2. RRANNVLKNEM [NP 184-194]

Reply:
1. 20
2. 60

Ask: Bench note: what EC50 did HRQDINGKEM [NP 100-109] show?
Reply: 96

* * *

Molecular target: HLA-B*2705 (Homo sapiens, UniProt P01889, D138H/D201E/E176V/E204Q/G107R/H137Y/K202T/N104T/N87E/Q56L/Q94K/R106L/R155S/R180L/S101D/S121N/S48T/Y140D/Y33H/Y91C)
Construct: expressed in transfected cells; host or cells: RMA-S (TAP-deficient murine cell line)
Test: HLA/peptide complex stability assay, RMA-S cells transfected with HLA-B*2705
Type: cell-based
Conditions: SD
Ends that are not written are not given here.
observationType: EC50

Ask: I have this sequence here, RRAAAAAAAI [RRA7I] , and I need its recorded EC50.
Reply: 4 µM

* * *

Target: HLA-B*2709 (Homo sapiens, UniProt P01889, D138H/D201E/E176V/E204Q/G107R/H137Y/K202T/N104T/N87E/Q56L/Q94K/R106L/R155S/R180L/S101D/S121N/S48T/Y140H/Y33H/Y91C)
Construct: expressed in transfected cells; host or cells: RMA-S (TAP-deficient murine cell line)
Assay: HLA/peptide complex stability assay, RMA-S cells transfected with HLA-B*2709
Assay type: cell-based
Conditions: relative affinity (EC50 class), B*2709
pEC50: −log10 of the molar value. Ends that are not written are not given here.
observationType: pEC50

Ask: May I ask what pEC50 has been recorded for GRNEVFSNK [L 2089-2097] ?
Reply: 3.70 to 4.21

Ask: So what does the record say about pEC50 for HRQDINGKEM [NP 100-109] ?
Reply: 4.22 to 4.70

Ask: Form field: reported pEC50 of KRLPADVLKK [M2 150-159]
Reply: 4.22 to 4.70

Ask: # input sequence: LRNEESEKMAK [P 198-208] ; wanted: its pEC50
Reply: 3.70 to 4.21

Continue with the sequence presented below.
Ask: Reported pEC50, sequence HRFIYLINH [NS2 37-45] : ____
Reply: 4.22 to 4.70

* * *

Give EC50 for every item shown.
Molecular target: HLA-B*2701 (Homo sapiens, UniProt P01889, D138H/D201E/D98Y/E176V/E204Q/G107R/H137Y/K202T/L105A/N104T/N87E/Q56L/Q94K/R106L/R155S/R180L/S101N/S121N/S48T/Y140D/Y33H/Y91C)
Construct: expressed in transfected cells; host or cells: RMA-S (TAP-deficient murine cell line)
Assay: HLA/peptide complex stability assay, RMA-S cells transfected with HLA-B*2701
Type: cell-based
Conditions: EC50, B*2701; SD
Ends that are not written are not given here.

Ask: Entry RRANNVLKNEM [NP 184-194] : reported EC50 = ?
Reply: 39 µM

Report EC50 for each item below.
1. KRYKGLLPKDI [NP 195-205]
2. SRSALLAQM [M 76-84]

Reply:
1. 8 µM
2. 15 µM

* * *

Molecular target: HLA-B*2703 (Homo sapiens, UniProt P01889, D138H/D201E/E176V/E204Q/G107R/H137Y/K202T/N104T/N87E/Q56L/Q94K/R106L/R155S/R180L/S101D/S121N/S48T/Y140D/Y33H/Y83H/Y91C)
Construct: expressed in transfected cells; host or cells: RMA-S (TAP-deficient murine cell line)
Assay: HLA/peptide complex stability assay, RMA-S cells transfected with HLA-B*2703
Assay type: cell-based
Conditions: Table 2; peptide concentration at 50% of maximum fluorescence, range 0.01–200 µM; transfected RMA-S cells, flow cytometry; mean ± S.D. of three to five independent experiments; - = no statistical difference in fluorescence index to negative control; SD; read-out: EC50, B*2703
Ends that are not written are not given here.
Task for the reader: assign each of the following sequences its reported pEC50.
Give bare numbers, as −log10 of the molar value.

Ask: Field request: pEC50 | item: RRYPDAVYL [MV F 438-466, reference compound]
Reply: 5.40

***
Ask: Which pEC50 is listed for KRAVGIGAL [HIV gp160 500-508, reference compound] ?
Reply: 4.85

* * *

Target: HLA-B*2704 (Homo sapiens, UniProt P01889, A235G/D138H/D201E/E204Q/G107R/H137Y/K202T/N104T/N87E/Q56L/Q94K/R106L/R155S/R180L/S121N/S48T/Y140D/Y33H/Y91C)
Test: HLA/peptide complex stability assay, RMA-S cells transfected with HLA-B*2704
Format: cell-based
Conditions: read-out: EC50, B*2704
Ends that are not written are not given here.
observationType: EC50

Ask: Quick check: EC50 of LRNEESEKMAK [P 198-208] ?
Reply: > 200 µM

* * *

Provide the reported EC50 of each item.
Target: HLA-B*2706 (Homo sapiens, UniProt P01889, A235G/D201E/E204Q/G107R/H137Y/K202T/N104T/N87E/Q56L/Q94K/R106L/R155S/R180L/S121N/S48T/Y33H/Y91C)
Construct: expressed in transfected cells; host or cells: RMA-S (TAP-deficient murine cell line)
Assay: HLA/peptide complex stability assay, RMA-S cells transfected with HLA-B*2706
Assay type: cell-based
Settings: relative affinity (EC50 class), B*2706
Ends that are not written are not given here.

Example results:
Ask: Recorded EC50 for KRLPADVLKK [M2 150-159] , please?
Reply: > 200 µM

Ask: Please give the measured EC50 for this sequence: LRNEESEKMAK [P 198-208]
Reply: > 200 µM

Ask: What EC50 value was documented for this sequence, HRFIYLINH [NS2 37-45] ?
Reply: 20 to 60 µM

Would you kindly look at the next entry?
Ask: What value of measured EC50 is listed for GRNEVFSNK [L 2089-2097] ?
Reply: > 200 µM

* * *

Give EC50 for every item shown.
Target: HLA-B*2704 (Homo sapiens, UniProt P01889, A235G/D138H/D201E/E204Q/G107R/H137Y/K202T/N104T/N87E/Q56L/Q94K/R106L/R155S/R180L/S121N/S48T/Y140D/Y33H/Y91C)
Assay: HLA/peptide complex stability assay, RMA-S cells transfected with HLA-B*2704
Type: cell-based
Settings: relative affinity (EC50 class), B*2704
Ends that are not written are not given here.

Ask: What value of EC50 has been reported for the following sequence? VRNKDLNTL [M 169-177]
Reply: 20 to 60 µM

Ask: Which EC50 reading was recorded for the sequence GRNEVFSNK [L 2089-2097] ?
Reply: 61 to 200 µM

Ask: What value of EC50 has been reported for the following sequence? KRLPADVLKK [M2 150-159]
Reply: 61 to 200 µM

Ask: Name the reported EC50 value associated with the sequence LRNEESEKMAK [P 198-208]
Reply: > 200 µM

Ask: Endpoint output: EC50 of HRFIYLINH [NS2 37-45] . Value?
Reply: 61 to 200 µM

***
Ask: Consider the sequence shown here: HRQDINGKEM [NP 100-109] What is its recorded EC50?
Reply: 61 to 200 µM
